# Tested on: HCV replicon
# ASSAY PROTOCOL: microbe, parasite or virus in culture
# Type: cell-based
# CONDITIONS: Hepatitis C virus, 48 h, read-out: Replicon IC5Os μM
Let's look at some molecules and their measured IC50.

{"columns": ["STRUCTURE SMILES STRING", "IC50"],
 "data": [
  ["CCn1c(C#Cc2ccc(N)cc2)c(C#N)c2ccc(OC)cc21", "0.5 to 2 µM"],
  ["CCn1c(C#Cc2ccc3c(c2)OCCO3)c(C#N)c2ccc(OC)cc21", "0.5 to 2 µM"],
  ["CCn1c(-c2ccc(NC(=O)OC)cc2)c(C#N)c2cc(OC)ccc21", "< 0.5 µM"],
  ["CCn1c(-c2ccc(NS(=O)(=O)C3CC3)cc2)c(C#N)c2cc(OC)ccc21", "< 0.5 µM"],
  ["CCn1c(-c2ccc(N3CCCC3=O)cc2)c(C#N)c2ccc(OC(F)F)cc21", "< 0.5 µM"]
]}

Sample CCn1c(C#Cc2cccc(NC(=O)C3CCC3)c2)c(C#N)c2ccc(OC)cc21 — what was its IC50?
0.5 to 2 µM

----------
# Test system: HCV replicon
# ASSAY PROTOCOL: microbe, parasite or virus in culture
# Assay type: cell-based
# CONDITIONS: Replicon IC50 values are determined by firefly luciferase signal; bicistronic replicon, 2 days; read-out: Replicon IC5Os
QUANTITY MEASURED: IC50

{"columns": ["STRUCTURE SMILES STRING", "IC50"],
 "data": [
  ["CCC(=O)Nc1cccc(-c2c(C#N)c3ccc(C(F)(F)F)cc3n2CC)c1", "> 2000 nM"]
]}

Endpoint output: IC50 of CCn1c(-c2cccc(NC(=O)Nc3cccc(C(F)(F)F)c3)c2)c(C#N)c2cc(OC)ccc21 . Value?
> 2000 nM

What value of IC50 has been recorded for this entry: CCn1c(-c2ccc(C(C)(C)C)cc2)c(C#N)c2ccc(OC)cc21
> 2000 nM

Requested field: IC50. Item: CCOC(=O)Nc1ccc(-c2c(C#N)c3ccc(C(F)(F)F)cc3n2CC)cc1
500 to 2000 nM

Sample CCS(=O)(=O)Nc1ccc(-c2cc3ccc(OC(F)F)cc3n2C(C)C)cc1 — what was its IC50?
> 2000 nM

// returns reported IC50 for input CC(C)CCn1c(-c2ccc(NS(C)(=O)=O)cc2)c(C#N)c2cc(Cl)ccc21
500 to 2000 nM

What does the data say about its IC50? Entry: CC(C)n1cc(C#N)c2ccc(O)cc21
> 2000 nM

So what's the measured IC50 for this one? CCn1c(-c2cccc(NC(=O)OC3CCCC3)c2)c(C#N)c2ccc(OC)cc21
500 to 2000 nM

----------
Property: IC50; scope: individual molecules
# Test system: HCV replicon
# ASSAY PROTOCOL: microbe, parasite or virus in culture
# Type: cell-based
# CONDITIONS: Hepatitis C virus, 48 h, read-out: Replicon IC5Os

See these solved cases before continuing.
{"columns": ["MOLECULE", "IC50"],
 "data": [
  ["CCCNC(=O)Nc1ccc(-c2c(C#N)c3cc(Cl)ccc3n2CC)cc1 [Compound 628]", "500 to 2000 nM"],
  ["CCn1c(-c2cccc(NC(=O)Oc3ccc(Br)cc3)c2)c(C#N)c2ccc(OC)cc21 [Compound 309]", "500 to 2000 nM"],
  ["CCn1c(-c2cccc(NC(=O)OCC(C)C)c2)c(C#N)c2ccc(OC)cc21 [Compound 296]", "500 to 2000 nM"],
  ["CCn1c(-c2cccc(NC(=O)NC(C)C)c2)c(C#N)c2ccc(OC)cc21 [Compound 397]", "< 500 nM"],
  ["CCn1c(-c2cccc(NC(=O)OCCOC)c2)c(C#N)c2cc(N3CCOCC3)ccc21 [Compound 607]", "< 500 nM"]
]}

IC50 lookup needed for N#Cc1c(-c2ccc(NC(=O)OCCF)cc2)n(CC2CC2)c2cc(OC(F)F)ccc12 [Compound 738] , thanks.
< 500 nM

Quick check: IC50 of CCn1c(-c2ccc(NS(=O)(=O)CCCCl)cc2)c(C#N)c2cc(Cl)ccc21 [Compound 617] ?
< 500 nM

What does the data say about its IC50? Entry: CCn1c(-c2ccc(NC(=O)c3ccccc3)cc2)c(C#N)c2ccc(OC(C)C)cc21 [Compound 763]
< 500 nM

----------
Collected melting point values appear next to each entry.

See these solved cases before continuing.
{"columns": ["COMPOUND", "melting point"],
 "data": [
  ["CCn1c(-c2ccc(N)cc2)c(C#N)c2ccc(OCCF)cc21 [Compound 543]", "197 to 200 °C"],
  ["COc1ccc2c(C#N)c(-c3cccc(NS(C)(=O)=O)c3)n(C3CCCC3)c2c1 [Compound 720]", "172 to 178 °C"],
  ["CCn1c(-c2ccc(NC(=O)C3CC3)cc2)c(C#N)c2ccc(OC)cc21 [Compound 81]", "209 to 211 °C"],
  ["CCOc1ccc2c(C#N)c(-c3ccc(NS(=O)(=O)CC)cc3)n(CC(C)C)c2c1 [Compound 470]", "178 to 180 °C"],
  ["CC(C)n1c(-c2ccc(NS(C)(=O)=O)cc2)c(C#N)c2ccc(OC(F)F)cc21 [Compound 523]", "190 to 192 °C"]
]}

Now for the compound whose melting point we want.
Record request: melting point value, item CCCS(=O)(=O)Nc1ccc(-c2c(C#N)c3ccc(OC)cc3n2CC)cc1 [Compound 251]
186 to 187 °C

----------
# System: HCV replicon
# ASSAY PROTOCOL: microbe, parasite or virus in culture
# Assay type: cell-based
# CONDITIONS: Replicon IC50 values are determined by firefly luciferase signal; bicistronic replicon, 2 days; read-out: Replicon IC5Os
compounds and their reported IC50

{"columns": ["COMPOUND", "TEST RESULT"],
 "data": [
  ["COc1ccc2c(C#N)c(-c3cccc(NC(=O)OCCCl)c3)n(C(C)C)c2c1 [Compound 553]", "> 2 µM"]
]}

For CCS(=O)(=O)N(C)c1ccc(-c2c(C#N)c3ccc(OC(F)F)cc3n2C)cc1 [Compound 687] , what is its reported IC50?
< 0.5 µM

Need IC50, item CCn1c(-c2cccc(NC(C)=O)c2)c(C#N)c2ccc(OC)cc21 [Compound 329]
> 2 µM

----------
# Tested on: HCV replicon
# ASSAY PROTOCOL: microbe, parasite or virus in culture
# Type: cell-based
# CONDITIONS: Replicon IC50 values are determined by firefly luciferase signal; bicistronic replicon, 2 days; read-out: Replicon IC5Os
QUANTITY MEASURED: IC50

Some solved cases for reference:
{"columns": ["STRUCTURE SMILES STRING", "QUANTITY MEASURED", "TEST RESULT"],
 "data": [
  ["N#Cc1c(-c2ccc(N3CCCS3(=O)=O)cc2)n(CC2CC2)c2cc(OC(F)F)ccc12", "IC50", "500 to 2000 nM"],
  ["COc1ccc2c(C#N)c(-c3ccc(NS(C)(=O)=O)cc3)n(CC3CCCC3)c2c1", "IC50", "> 2000 nM"],
  ["CCn1c(-c2cccc(NS(=O)(=O)NCCCl)c2)c(C#N)c2ccc(OC)cc21", "IC50", "> 2000 nM"],
  ["COc1ccc2c(C#N)c(C)n(-c3ccc4c(c3)OCO4)c2c1", "IC50", "500 to 2000 nM"],
  ["CCCn1c(-c2ccc(NS(C)(=O)=O)cc2)cc2ccc(OCC)cc21", "IC50", "> 2000 nM"]
]}

Reported IC50 for CCn1c(-c2ccc(C(=O)N3CCCNCC3)cc2)c(C#N)c2ccc(OC)cc21 : what is it?
> 2000 nM

Using the record for CCn1c(-c2cccc(NC(=O)OCc3ccc(C(C)C)cc3)c2)c(C#N)c2ccc(OC)cc21 , report its IC50.
> 2000 nM

Field request: IC50 | item: CCn1c(-c2ccc3[nH]ccc3c2)c(C#N)c2ccc(OC)cc21
> 2000 nM

----------
The following compounds are listed with their measured pIC50 values.
# Test system: HCV replicon
# ASSAY PROTOCOL: microbe, parasite or virus in culture
# Type: cell-based
# CONDITIONS: Replicon IC50 values are determined by firefly luciferase signal; bicistronic replicon, 2 days; read-out: Replicon IC5Os
pIC50: −log10 of the molar value.

{"columns": ["COMPOUND", "TEST RESULT"],
 "data": [
  ["CCn1c(-c2ccc(C(=O)NC3CC3)cc2)c(C#N)c2cc(OC)ccc21 [Compound 571]", "5.70 to 6.30"],
  ["CCn1c(-c2ccc(C(=O)Nc3ccc(Cl)cc3)cc2)c(C#N)c2ccc(OC)cc21 [Compound 382]", "5.70 to 6.30"],
  ["CCn1c(-c2ccc(OC)c(F)c2)c(C#N)c2ccc(OC)cc21 [Compound 74]", "< 5.70"],
  ["CCNC(=O)c1ccc(-c2c(C#N)c3ccccc3n2CC)cc1 [Compound 432]", "< 5.70"],
  ["CCn1c(C#Cc2ccc(OC)cc2)c(C#N)c2ccc(C(F)(F)F)cc21 [Compound 199]", "< 5.70"],
  ["CCn1c(-c2cccc(C(=O)NCCN3CCOCC3)c2)c(C#N)c2ccc(OC)cc21 [Compound 290]", "< 5.70"],
  ["CCn1c(-c2ccc(NC(=O)N3CCOCC3)cc2)c(C#N)c2ccc(C(F)(F)F)cc21 [Compound 424]", "< 5.70"],
  ["CCn1c(C#Cc2cccc(NS(=O)(=O)C(C)C)c2)c(C#N)c2ccc(OC)cc21 [Compound 210]", "5.70 to 6.30"]
]}

Find the recorded pIC50 belonging to CCn1c(-c2ccc(C(=O)NC(C)C)cc2)c(C#N)c2ccc(OC)cc21 [Compound 385] and report it.
5.70 to 6.30

Entry under review: COc1cccc(C#Cc2[nH]c3cc(OC)ccc3c2C#N)c1 [Compound 237] . Reported pIC50?
< 5.70
